Test system: HEK-293T
protocol_text: Multiplex assay against HEK293T;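 on Population Tubulin-Different-Phenotype (%): share of the cells with healthy nuclei that show this phenotype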
Type: toxicity, cell-based
applied_conditions: human, 24 h, 1 µM, compound concentration 1 uM, replicate 2
measure: Population Tubulin-Different-Phenotype (%)
Answer with a number only, understood to be in %.

Request: Endpoint output: Population Tubulin-Different-Phenotype (%) of C=CCn1c(=O)c2cnc(Nc3ccc(N4CCN(C)CC4)cc3)nc2n1-c1cccc(C(C)(C)O)n1 [ADAVOSERTIB] . Value?
Result: 32

Request: Lookup CN1CCN(C(=O)C(C)(C)c2ccc(C(=O)Nc3cn4cc(-c5cc(C(C)(C)C)cc(C(C)(C)C)c5)ccc4n3)cc2)CC1 [T3-CLK-N]
Result: 40

Request: Lookup `CCCS(=O)(=O)c1nc(NC2CC2)cc(-c2ccc3c(ccn3C3CC(C)(C)NC(C)(C)C3)c2)n1`
Result: 71

Request: Lookup CN1CCC(=C2c3ccccc3CC(=O)c3sccc32)CC1.O=C(O)/C=C/C(=O)O [KETOTIFEN FUMARATE]
Result: 48

Request: Lookup CCOC(=O)c1c(C)[nH]c2ccc3c(c12)CN1CCc2cc(OC)ccc2C1O3 (stereo unspecified)
Result: 86

Request: Lookup Cn1nc(C(F)(F)F)cc1-c1cnc(N2CCc3cc(S(=O)(=O)Nc4c(F)cc(Cl)cc4F)cc(N4CCCC4=O)c32)nc1 [TP-020]
Result: 47

Request: Lookup `CCN1CCN(Cc2ccc(Nc3ncc(F)c(-c4cc(F)c5nc(C)n(C(C)C)c5c4)n3)nc2)CC1.CS(=O)(=O)O`
Result: 94

Request: Lookup `O=C1N/C(=N/c2ccccc2F)S/C1=C\c1ccc(C(=O)O)cc1`
Result: 21

Request: Lookup CN1C2CCC1CC(OC(c1ccc(F)cc1)c1ccc(F)cc1)C2.Cl (stereo unspecified)
Result: 64

Request: Lookup Cc1cn(-c2cc(NC(=O)c3ccc(C)c(Nc4nccc(-c5cccnc5)n4)c3)cc(C(F)(F)F)c2)cn1 [NILOTINIB]
Result: 38

Please turn your attention to the following entry.
Request: Endpoint output: Population Tubulin-Different-Phenotype (%) of COc1cc2ncnc(Nc3ccc(F)c(Cl)c3)c2cc1NC(=O)/C=C/CN1CCCCC1 [DACOMITINIB ANHYDROUS] . Value?
Result: 54

---

Test system: Fibroblast
protocol_text: Multiplex assay against human fibroblast
Assay type: toxicity, cell-based
applied_conditions: 24 h, 1 µM, compound concentration 1 uM, replicate 1
The reader will find reported Population Apoptotic (%) values listed item by item below.
I'd appreciate it if you included the unit after the number.

Answered examples (5):
Request: Endpoint output: Population Apoptotic (%) of `Cl.Oc1ccc2c3c1O[C@H]1c4[nH]c5c(c4C[C@@]4(O)[C@@H](C2)N(CC2CC2)CC[C@]314)C[C@@]1(O)[C@H]2Cc3ccc(O)c4c3[C@@]1(CCN2CC1CC1)[C@H]5O4` . Value?
Result: 66%

Request: Lookup COc1cccc2cc(-c3nc([C@H]4CC[C@H](C(=O)O)CC4)n4ncnc(N)c34)[nH]c12 [OSI-027]
Result: 53%

Request: Lookup CN[C@@H]1C[C@H]2O[C@@](C)([C@@H]1OC)n1c3ccccc3c3c4c(c5c6ccccc6n2c5c31)C(=O)NC4 [STAUROSPORINE]
Result: 85%

Request: Lookup `CCc1cccc(CC)c1NC(=O)c1nn(C)c2c1CCc1cnc(Nc3ccc(C(=O)NC4CCN(C)CC4)cc3OC(F)(F)F)nc1-2`
Result: 48%

Request: Lookup `O=C(Nc1cccnn1)N1CCC(=Cc2cccc(Oc3ccc(C(F)(F)F)cn3)c2)CC1`
Result: 72%

Continuing:
Request: Endpoint output: Population Apoptotic (%) of `CCCS(=O)(=O)c1nc(NC2CC2)cc(-c2ccc3c(ccn3C3CC(C)(C)NC(C)(C)C3)c2)n1` . Value?
Result: 42%

Request: Lookup `Cl.O=c1c2cccn2c2ccccc2n1CCCN1CCC(c2ccc(Cl)cc2)CC1`
Result: 48%

---

System: Fibroblast
protocol_text: Multiplex assay against human fibroblast
Type: toxicity, cell-based
applied_conditions: 24 h, 10 µM, compound concentration 10 uM, replicate 2
measure: Population Normal (%)
Answer with a number only, understood to be in %.

Answered examples (2):
Request: Endpoint output: Population Normal (%) of `O=C(Nc1cccnn1)N1CCC(=Cc2cccc(Oc3ccc(C(F)(F)F)cn3)c2)CC1` . Value?
Result: 76

Request: Lookup COc1cc2ncnc(Nc3ccc(F)c(Cl)c3)c2cc1NC(=O)/C=C/CN1CCCCC1 [DACOMITINIB ANHYDROUS]
Result: 69

Continuing:
Request: Endpoint output: Population Normal (%) of `O=C(Nc1ccc(-c2ccnc(Nc3ccc(N4CCOCC4)cc3)n2)cc1)[C@@H]1CCCN1` . Value?
Result: 98

---

Tested on: Fibroblast
protocol_text: Multiplex assay against human fibroblast
Assay type: toxicity, cell-based
applied_conditions: 24 h, 10 µM, compound concentration 10 uM, replicate 1
measure: Population Apoptotic (%)
Answer with a number only, understood to be in %.

Request: Endpoint output: Population Apoptotic (%) of O=C(Cc1ccc(-c2ccc(OCCN3CCOCC3)cc2)cn1)NCc1ccccc1 [TIRBANIBULIN] . Value?
Result: 54

Request: Lookup CCOc1cc2ncc(C#N)c(Nc3ccc(OCc4ccccn4)c(Cl)c3)c2cc1NC(=O)/C=C/CN(C)C [NERATINIB]
Result: 52

Request: Lookup COc1cc2ncnc(Nc3ccc(F)c(Cl)c3)c2cc1NC(=O)/C=C/CN1CCCCC1 [DACOMITINIB ANHYDROUS]
Result: 58

Request: Lookup O=C(Nc1ccc(-n2nc(-c3cccnc3)cc2C(F)(F)F)cn1)c1ccc(-c2ccccc2)c(F)c1 [BI 2049]
Result: 66

Request: Lookup CN1CCC(=C2c3ccccc3CC(=O)c3sccc32)CC1.O=C(O)/C=C/C(=O)O [KETOTIFEN FUMARATE]
Result: 75

Request: Lookup CCn1cc(-c2ccnc3[nH]c(-c4cccc(CN(C)C)c4)cc23)c(-c2ccc(NC(=O)N(C)C)cc2)n1 [GSK-1070916]
Result: 49

Request: Lookup Cc1cn(-c2cc(NC(=O)c3ccc(C)c(Nc4nccc(-c5cccnc5)n4)c3)cc(C(F)(F)F)c2)cn1 [NILOTINIB]
Result: 77

Request: Lookup `O=C1N/C(=N/c2ccccc2F)S/C1=C\c1ccc(C(=O)O)cc1`
Result: 65

Request: Lookup `Cc1ccc2nc(NCCN)c3ncc(C)n3c2c1.O=C(O)C(F)(F)F.O=C(O)C(F)(F)F`
Result: 81

Request: Lookup `NC(=O)c1cccc(-c2cc(Nc3ccc(OC(F)(F)F)cc3)ncn2)c1`
Result: 55

Continuing:
Request: Endpoint output: Population Apoptotic (%) of CCCn1c(=O)c2[nH]c(-c3cnn(Cc4cccc(C(F)(F)F)c4)c3)nc2n(CC)c1=O [GS 6201] . Value?
Result: 87

Request: Lookup `Cl.O=C(c1ccc(Nc2nccc(-c3cc4ccccc4s3)n2)cc1)N1CCC(N2CCCC2)CC1`
Result: 71

Request: Lookup `Cl.Oc1ccc2c3c1O[C@H]1c4[nH]c5c(c4C[C@@]4(O)[C@@H](C2)N(CC2CC2)CC[C@]314)C[C@@]1(O)[C@H]2Cc3ccc(O)c4c3[C@@]1(CCN2CC1CC1)[C@H]5O4`
Result: 65

Request: Lookup `CCn1c(=O)c(-c2ccc(-c3cncs3)cc2Cl)cc2cnc(Nc3ccc(N4CCN(C)CC4)cc3)nc21`
Result: 85

Request: Lookup COc1cc(N2CCC(N3CCN(C)CC3)CC2)ccc1Nc1ncnc(Nc2ccccc2S(=O)(=O)C(C)C)n1 [ASP-3026]
Result: 79

---

Tested on: HEK-293T
protocol_text: Multiplex assay against HEK293T
Assay type: toxicity, cell-based
applied_conditions: human, 24 h, 1 µM, compound concentration 1 uM, replicate 1
Cut-off 80% on Population Mitochondria Different-Phenotype (%): below means label 1, at or above means label 0.

Solved entries:
Request: In plain terms, does `O=C(Cc1ccc(-c2ccc(OCCN3CCOCC3)cc2)cn1)NCc1ccccc1` come in under 80% for Population Mitochondria Different-Phenotype (%)?
Result: label 1

Request: Lookup `O=C1NC(=O)C(c2cnc3ccccn23)=C1c1cn2c3c(cc(F)cc13)CN(C(=O)N1CCCCC1)CC2`
Result: label 0

Request: Lookup COc1cc2ncnc(Nc3ccc(F)c(Cl)c3)c2cc1NC(=O)/C=C/CN1CCCCC1 [DACOMITINIB ANHYDROUS]
Result: label 1

Request: Lookup `Cc1cn(-c2cc(NC(=O)c3ccc(C)c(Nc4nccc(-c5cccnc5)n4)c3)cc(C(F)(F)F)c2)cn1`
Result: label 0

Request: Lookup `CCOc1cc(C(=O)N2CCC(N3CCN(C)CC3)CC2)ccc1Nc1ncc2c(n1)N(C1CCCC1)c1ccccc1C(=O)N2C`
Result: label 0

Now consider the entry below.
Request: In plain terms, does CCOC(=O)c1c(C)[nH]c2ccc3c(c12)CN1CCc2cc(OC)ccc2C1O3 (stereo not drawn) come in under 80% for Population Mitochondria Different-Phenotype (%)?
Result: label 0

Just for reference, ChEMBL document CHEMBL4689842 is where these values come from.
